Tested on: NCI-H522 lung
testDetails: NCI tumour cell line growth inhibition, 48 h; in the data active = GI50 below about 0.43 µM; inactive = the rest
One label from this list, please: True (active), False (inactive)

compound	group
Oc1cccc(Cn2c(-c3cccc(O)c3O)nc3ccccc32)c1O	False
NCCCn1c2c(c3cc4c(cc3c1=O)OCO4)C(=O)c1ccccc1-2	False
COC(=O)c1cc2c3c(cc(O)c2[nH]1)N(C(=O)C1Cc2cc(OC)c(OC)c(OC)c2N1)CC3CCl (stereo not drawn)	True

(Q) Status in this test for O=C1C(Cl)=C(Nc2cccc(O)c2)C(=O)N1c1cccc(Cl)c1 ?
(A) False

(Q) Tell me the recorded outcome of this test for O=C(NC1CCN(Cc2ccccc2)CC1)c1cc(C(=O)NC2CCN(Cc3ccccc3)CC2)cc(C(=O)NC2CCN(Cc3ccccc3)CC2)c1 .
(A) False

(Q) Lab log entry: COc1cccc(-c2nc(-c3ccc(NC(=O)c4ccccc4)cc3)[nH]c2-c2ccnc(Br)c2)c1 — outcome as called in the assay?
(A) False

(Q) What was the test verdict on N#C/C(=C/C=C/c1ccccc1)S(=O)c1ccccc1 (stereo not drawn) ?
(A) True

(Q) Tell me the recorded outcome of this test for N/C(=N\c1nc2ccccc2s1)NC(=O)Nc1ccccc1Cl .
(A) True

(Q) Entry CC(C)(C)N1CC(OC(N)=O)C1 : call = ?
(A) False

These data points were gathered from PubChem BioAssay (NCI).
